Below is a list of entries, each paired with its recorded viability at 1 µM value.
Test: cytotoxicity in Drosophila DL1 cells
Assay type: cell-based
Conditions: Drosophila, DL1 cells (embryonic macrophage-derived), DL1 cells, 1 µM, replicate 1, relative to DMSO 1%; read-out: % viability, viability 1
Numbers only; they are read as %.

Here's what some known entries look like.
{"compound": "C=C1CC[C@@H]2[C@](C)(CC[C@H]3O[C@H](C=C(C)C)C[C@@]23C)[C@@H]1Cc1c(O)c(C)c(C)oc1=O [Compound 10, higginsianin A]", "unit_name": "%", "viability at 1 µM": 7.23}
{"compound": "C=C1CCC2C(C)(CCC=C(C)C)C(=O)CCC2(C)C1Cc1c(O)c(C)c(C)oc1=O (stereo not drawn) [Compound 8]", "unit_name": "%", "viability at 1 µM": 129}
{"compound": "C=C1CC[C@H]2[C@]3(C)C[C@@H](C=C(C)C)O[C@H]3CC[C@]2(C)[C@@H]1Cc1c(OC)oc(CO)c(C)c1=O [Compound 17]", "unit_name": "%", "viability at 1 µM": 94.2}
{"compound": "C=C1CCC2C(C)(CC(=O)C=C(C)C)C(O)CCC2(C)C1Cc1c(OC)oc(CO)c(C)c1=O (stereo not drawn) [Compound 19]", "unit_name": "%", "viability at 1 µM": 92.1}

## Input Endpoint output: viability at 1 µM of C=C1CC[C@@H]2[C@](C)(CC[C@H]3O[C@H](C=C(C)C)C[C@@]23C)[C@@H]1Cc1c(OC)oc(CO)c(C)c1=O [Compound 20] . Value?
## Output 20.6

## Input Query C=C1CC[C@@H]2[C@](C)(CC[C@H]3O[C@H](C=C(C)C)C[C@@]23C)[C@@H]1Cc1c(OC)oc(CO)c(C(=O)OC)c1=O [Compound 21] next
## Output 3.52

* * *

Target: UniProtKB P05067
Sequence (P05067 672-713): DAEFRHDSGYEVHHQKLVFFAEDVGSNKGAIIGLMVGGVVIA
Experiment: Th-T (thioflavin-T) assay of Aβ42 aggregation
Type: biochemical
Settings: time course, reading M64
property_name: Th-T fluorescence, mean of three wells
Provide a numeric answer; units are not to be included.

These recorded examples may help you get a feel for the data.
{"molecule": "C=C1CC[C@H]2[C@]3(C)C[C@H](C=C(C)C)O[C@H]3CC[C@]2(C)[C@@H]1Cc1c(OC)oc(CO)c(C)c1=O [Compound 18]", "Th-T fluorescence, mean of three wells": 3.976}
{"molecule": "C=C1CCC2C(C)(CC(=O)C=C(C)C)C(O)CCC2(C)C1Cc1c(O)c(C)c(C)oc1=O (stereo not drawn) [Compound 7]", "Th-T fluorescence, mean of three wells": 3.57}
{"molecule": "C=C1CCC2C3(C)CC(C=C(C)C)OC3CCC2(C)C1Cc1c(OC)oc(C)c(C)c1=O (stereo not drawn) [Compound 23]", "Th-T fluorescence, mean of three wells": 3.993}
{"molecule": "C=C1CC[C@H]2[C@]3(C)C[C@H](C=C(C)C)O[C@H]3CC[C@]2(C)[C@@H]1Cc1c(O)c(C)c(C)oc1=O [Compound 6, subglutinol B]", "Th-T fluorescence, mean of three wells": 3.115}
{"molecule": "C=C1CC[C@H]2[C@]3(C)C[C@H](C=C(C)C)O[C@H]3CC[C@]2(C)[C@@H]1Cc1c(OC)oc(C)c(C)c1=O [Compound 24]", "Th-T fluorescence, mean of three wells": 4.119}

Here is another molecule to look at.
## Input What measured Th-T fluorescence, mean of three wells is associated with C=C1CC[C@H]2[C@]3(C)C[C@@H](C=C(C)C)O[C@H]3CC[C@]2(C)[C@@H]1Cc1c(O)c(C)c(C)oc1=O [Compound 5, subglutinol A] on UniProtKB P05067?
## Output 2.715
